target: SARS-CoV-2 Mac1 (Severe acute respiratory syndrome coronavirus 2); assay: biochemical; settings: read-out: %inhibition
Counter-ions that a name gives are not always drawn.
Readings of inhibition at 100 µM for the listed compounds
readoutLabel: inhibition at 100 µM (%)

1) CC[N+](C)(CC)CCOC(=O)C(O)(c1ccccc1)c1ccccc1 [Methylbenactyzine Bromide] | 9.38
2) C[C@@H](NCCc1ccc(O)cc1)[C@@H](O)c1ccc(O)cc1 (racemic) [Ritodrine HCl] | 33.2
3) COC(=O)C1=C(C)NC(C)=C(C(=O)O[C@@H]2CCCN(Cc3ccccc3)C2)[C@@H]1c1cccc([N+](=O)[O-])c1 (racemic) [Benidipine HCl] | 4.77
4) C[C@]12C=CC(=O)C=C1CC[C@@H]1[C@@H]2C(=O)C[C@@]2(C)[C@H]1CC[C@]2(O)C(=O)CO | 0
5) O=C(O)CCCCCCCC(=O)O | 0
6) CN1CCN(c2cc3c(cc2F)c(=O)c(C(=O)O)cn3-c2ccc(F)cc2)CC1 [Difloxacin HCl] | 2.61
7) CC(C)(C)NC[C@H](O)COc1nsnc1N1CCOCC1 [Timolol Maleate] | 11.9
8) CCN(CC)CCNC(=O)c1c(C)[nH]c(/C=C2\C(=O)Nc3ccc(F)cc32)c1C [Sunitinib Malate] | 16.2
9) CN(C)CCC=C1c2ccccc2CCc2ccccc21 [Amitriptyline HCl] | 0
10) CCC[C@H](N[C@@H](C)C(=O)N1[C@H](C(=O)O)C[C@@H]2CCCC[C@@H]21)C(=O)OCC | 5.79
11) CN(C)CCCC1(c2ccc(F)cc2)OCc2cc(C#N)ccc21 (stereo not shown) | 0
12) CNC(=O)c1cnn(-c2nc(N)c3ncn([C@@H]4O[C@H](CO)[C@@H](O)[C@H]4O)c3n2)c1 | 0
13) Oc1c(I)cc(I)c2cccnc12 [Diiodohydroxyquinoline] | 6.28

###

molecular target: SARS-CoV-2 Mac1 (Severe acute respiratory syndrome coronavirus 2, UniProt P0DTD1); experiment: biochemical; details: read-out: %inhibition
Structures can show the parent of a compound that is named as a salt.
Readings of inhibition at 100 µM for the listed molecules
readoutLabel: inhibition at 100 µM

1. CN1C[C@@H]2C[C@H]1CN2c1cc2c(cc1F)c(=O)c(C(=O)O)cn2C1CC1 [Danofloxacin Mesylate] | 0%
2. CCOC(=O)[N-]c1c[n+](N2CCOCC2)no1 | 0%
3. Cc1cccn2c(=O)c(-c3nnn[nH]3)cnc12 | 0%
4. Clc1ccc(C(Cn2ccnc2)OCc2c(Cl)cccc2Cl)c(Cl)c1 (stereo not shown) [Isoconazole nitrate] | 34.7%
5. Cn1c([N+](=O)[O-])cnc1COC(N)=O | 0%
6. CC(C)(C)c1ccc(C(O)CCCN2CCC(C(O)(c3ccccc3)c3ccccc3)CC2)cc1 (stereo not shown) | 11%
7. C[C@H](N)[C@H](O)c1cccc(O)c1 [Metaraminol Bitartrate] | 8.05%
